target: insulin (human, UniProt P01308;P01308 25-54;90-110); assay: bead-based flow cytometry
Sequence (P01308 25-54, chain 1 of 2): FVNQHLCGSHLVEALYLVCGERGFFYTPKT
Sequence (P01308 90-110, chain 2 of 2): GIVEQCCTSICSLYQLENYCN
Outcome Measure: Kd (µM)
Your answer is read as µM, so omit the unit and give the number.

Please give the measured Kd for this binder: GGTGGTGGGGGGGGTTGGTAGGGTGTCTTC (ssDNA) [IGA3 bt]
12.7
